Reference source: ChEMBL document CHEMBL5576124

- Assay: Stability in mouse liver microsomes assessed as parent compound remaining measured after 5 mins
- Format: ADME, Microsome
- Conditions used: read-out: Stability
Quantity: remaining at 5 min (%)
Reply with just the number (in %).

Entry Cc1cc(-c2c[nH]c3ncc(-c4ccc(C5CCN(C6CN(c7ccc8c(c7)C(=O)N(C7CCC(=O)NC7=O)C8=O)C6)CC5)cc4)nc23)ccc1C(=O)N(C)C (stereo unspecified) — recorded remaining at 5 min = 100

---

- Assay: AUC (0 to t) in ICR mouse at 1 mg/kg,iv measured upto 24 hrs by LC-MS analysis
- Assay type: ADME, organism-based
- Conditions used: in vivo
Quantity: AUC(0-t) at 24 h

# AUC(0-t) at 24 h of Cc1cc(-c2c[nH]c3ncc(-c4ccc(C5CCN(C6CN(c7ccc8c(c7)C(=O)N(C7CCC(=O)NC7=O)C8=O)C6)CC5)cc4)nc23)ccc1C(=O)N(C)C (stereo unspecified) = 16800 ng·h/mL

---

# Emax listing for each entry below
- Experimental system: Protein cereblon/Mitogen-activated protein kinase kinase kinase kinase 1 (Homo sapiens, UniProt Q92918+Q96SW2)
- Assay: PROTAC activity at CRBN/HPK1 in human Jurkat cells assessed as maximal degradation of HPK1 protein incubated for 24 hrs by Western blotting analysis relative to control
- Assay type: cell-based
- Sequence (Q92918 whole entry, looked up): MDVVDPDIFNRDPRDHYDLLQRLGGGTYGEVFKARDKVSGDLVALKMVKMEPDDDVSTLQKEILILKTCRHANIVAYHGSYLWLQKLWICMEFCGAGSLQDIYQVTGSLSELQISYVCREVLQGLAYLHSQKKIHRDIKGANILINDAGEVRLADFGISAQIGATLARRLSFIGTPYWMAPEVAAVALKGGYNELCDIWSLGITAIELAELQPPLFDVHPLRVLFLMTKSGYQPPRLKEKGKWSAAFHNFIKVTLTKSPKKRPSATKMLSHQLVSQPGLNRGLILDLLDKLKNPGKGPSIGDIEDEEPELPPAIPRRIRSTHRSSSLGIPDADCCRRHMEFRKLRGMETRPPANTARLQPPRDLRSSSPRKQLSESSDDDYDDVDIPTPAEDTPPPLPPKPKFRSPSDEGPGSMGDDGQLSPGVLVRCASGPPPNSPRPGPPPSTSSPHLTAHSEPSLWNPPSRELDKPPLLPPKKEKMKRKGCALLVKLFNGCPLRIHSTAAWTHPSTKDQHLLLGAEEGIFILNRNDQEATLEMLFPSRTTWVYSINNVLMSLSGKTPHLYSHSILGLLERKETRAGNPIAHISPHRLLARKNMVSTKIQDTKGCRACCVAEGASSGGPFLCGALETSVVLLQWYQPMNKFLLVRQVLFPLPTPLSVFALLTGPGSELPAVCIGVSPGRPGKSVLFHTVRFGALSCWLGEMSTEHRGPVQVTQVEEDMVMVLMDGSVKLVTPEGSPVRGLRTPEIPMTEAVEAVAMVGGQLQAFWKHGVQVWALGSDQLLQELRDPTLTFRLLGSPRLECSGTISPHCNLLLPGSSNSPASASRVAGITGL
- Sequence (Q96SW2 whole entry, looked up): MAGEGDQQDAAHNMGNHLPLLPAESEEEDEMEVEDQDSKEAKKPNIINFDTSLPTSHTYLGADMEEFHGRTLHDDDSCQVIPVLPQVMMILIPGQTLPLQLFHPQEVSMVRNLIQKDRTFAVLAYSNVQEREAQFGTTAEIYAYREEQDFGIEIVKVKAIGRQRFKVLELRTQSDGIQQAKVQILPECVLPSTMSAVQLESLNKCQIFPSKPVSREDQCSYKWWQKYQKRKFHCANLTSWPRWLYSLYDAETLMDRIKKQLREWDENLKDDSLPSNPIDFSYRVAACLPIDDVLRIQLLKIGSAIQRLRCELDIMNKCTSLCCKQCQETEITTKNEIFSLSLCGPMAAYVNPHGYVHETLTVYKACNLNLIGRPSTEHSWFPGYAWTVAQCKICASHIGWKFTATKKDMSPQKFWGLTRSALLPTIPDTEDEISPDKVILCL
Give just the numeric value; % need not be written.

Study these solved cases before continuing.
Per the record, Cc1cc(-c2c[nH]c3ncc(-c4ccc(C5CCN(C6CN(C(=O)Cc7ccc(NC8CCC(=O)NC8=O)cc7)C6)CC5)cc4)nc23)ccc1C(=O)N(C)C (stereo unspecified) has Emax of 38.5

Cc1cc(-c2c[nH]c3ncc(-c4ccc(C5CCN(C(=O)C6CN(c7ccc8c(c7)C(=O)N(C7CCC(=O)NC7=O)C8=O)C6)CC5)cc4)nc23)ccc1C(=O)N(C)C (stereo unspecified) yielded Emax of 42.6

So, Cc1cc(-c2c[nH]c3ncc(-c4ccc(C5CCN(C6CN(CC7CCN(c8ccc(N9CCC(=O)NC9=O)c(C)c8)CC7)C6)CC5)cc4)nc23)ccc1C(=O)N(C)C ? Its Emax was 79.3

Recorded result, Cc1cc(-c2c[nH]c3ncc(-c4ccc(C5CCN(C(=O)CCOCCOCCOc6cccc7c6C(=O)N(C6CCC(=O)NC6=O)C7=O)CC5)cc4)nc23)ccc1C(=O)N(C)C (stereo unspecified) , Emax: 56.6

Memo: Cc1cc(-c2c[nH]c3ncc(-c4ccc(C5CCN(c6cccc7c6C(=O)N(C6CCC(=O)NC6=O)C7=O)CC5)cc4)nc23)ccc1C(=O)N(C)C (stereo unspecified) , reported Emax: 2.8

We now examine a further compound.
Measured Emax of Cc1cc(-c2c[nH]c3ncc(-c4ccc(C5CCN(C6CN(c7cc8c(cc7F)C(=O)N(C7CCC(=O)NC7=O)C8=O)C6)CC5)cc4)nc23)ccc1C(=O)N(C)C (stereo unspecified) : 84.2

---

- Assay: Stability in human liver microsomes assessed as parent compound remaining measured after 5 mins
- Format: ADME, Microsome
- Conditions used: read-out: Stability
Quantity: remaining at 5 min
Please make sure the unit comes right after the number.

Lookup result for Cc1cc(-c2c[nH]c3ncc(-c4ccc(C5CCN(C6CN(c7ccc8c(c7)C(=O)N(C7CCC(=O)NC7=O)C8=O)C6)CC5)cc4)nc23)ccc1C(=O)N(C)C (stereo unspecified) ; measured remaining at 5 min: 96.5%

---

- Experimental system: Protein cereblon/Mitogen-activated protein kinase kinase kinase kinase 1 (Homo sapiens, UniProt Q92918+Q96SW2)
- Assay: PROTAC activity at CRBN/HPK1 in human Jurkat cells assessed as degradation of HPK1 protein incubated for 24 hrs by Western blotting analysis
- Format: cell-based
- Sequence (Q92918 whole entry): as the sequence (Q92918 whole entry, looked up) above
- Sequence (Q96SW2 whole entry): as the sequence (Q96SW2 whole entry, looked up) above
Quantity: DC50

Recorded DC50, per entry:
Record Cc1cc(-c2c[nH]c3ncc(-c4ccc(C5CCN(CC6CCN(C7CN(c8ccc9c(c8)C(=O)N(C8CCC(=O)NC8=O)C9=O)C7)CC6)CC5)cc4)nc23)ccc1C(=O)N(C)C (stereo not drawn) . Reported DC50: > 10 µM

The molecule listed as Cc1cc(-c2c[nH]c3ncc(-c4ccc(N5CCN(c6ccc7c(c6)C(=O)N(C6CCC(=O)NC6=O)C7=O)CC5)cc4)nc23)ccc1C(=O)N(C)C (stereo not drawn) has a reported DC50 of > 10 µM

More entries:
Value of DC50 reported for the molecule Cc1cc(-c2c[nH]c3ncc(-c4ccc(C5CCN(C6CN(C(=O)C7CN(c8ccc9c(c8)C(=O)N(C8CCC(=O)NC8=O)C9=O)C7)C6)CC5)cc4)nc23)ccc1C(=O)N(C)C (stereo not drawn) is > 10 µM

---

Measured DC50 by item
- Experimental system: Protein cereblon/Mitogen-activated protein kinase kinase kinase kinase 1 (Homo sapiens, UniProt Q92918+Q96SW2)
- Assay: PROTAC activity at CRBN/HPK1 in human Jurkat cells assessed as degradation of HPK1 protein incubated for 24 hrs by Western blotting analysis
- Assay type: cell-based

Form field DC50, entry Cc1cc(-c2c[nH]c3ncc(-c4ccc(C5CCN(C(=O)CNc6cccc7c6C(=O)N(C6CCC(=O)NC6=O)C7=O)CC5)cc4)nc23)ccc1C(=O)N(C)C (stereo not drawn) : > 10 µM

DC50 measured on Cc1cc(-c2c[nH]c3ncc(-c4ccc(C5CCN(C6CN(C(=O)CNc7cccc8c7C(=O)N(C7CCC(=O)NC7=O)C8=O)C6)CC5)cc4)nc23)ccc1C(=O)N(C)C (stereo not drawn) = > 10 µM

Further cases:
Briefly, DC50 measured for Cc1cc(-c2c[nH]c3ncc(-c4ccc(C5CCN(C(=O)CCOc6cccc7c6C(=O)N(C6CCC(=O)NC6=O)C7=O)CC5)cc4)nc23)ccc1C(=O)N(C)C (stereo not drawn) : > 10 µM
